test system: Staphylococcus aureus sp. 1130; experiment: in vitro tube dilution test (MIC); assay type: cell-based; conditions: Staphylococcus aureus sp. 1130, tube dilution; read-out: MIC
Overview of recorded MIC for various molecules
Express your answer in µg/mL, writing the number without its unit.

Consider the reported MIC for these molecules:
[
  {
    "MOLECULE": "CCOC(Cn1cc(C#N)c([N+](=O)[O-])n1)OCC [Compound 67]",
    "MIC, µg/mL": 50
  },
  {
    "MOLECULE": "N#Cc1cn(CC2CO2)nc1[N+](=O)[O-] (centres unmarked) [Compound 31]",
    "MIC, µg/mL": 50
  },
  {
    "MOLECULE": "CCOC(Cn1cc(C(N)=O)c([N+](=O)[O-])n1)OCC [Compound 82]",
    "MIC, µg/mL": 50
  },
  {
    "MOLECULE": "N#Cc1cn(CCCl)nc1[N+](=O)[O-] [Compound 33]",
    "MIC, µg/mL": 100
  },
  {
    "MOLECULE": "N#Cc1cn(CCO)nc1[N+](=O)[O-] [Compound 55]",
    "MIC, µg/mL": 6.25
  }
]

Q: Provide only the value of recorded MIC for CC(C)n1cc(C(N)=O)c([N+](=O)[O-])n1 [Compound 64]
A: 50

Q: Provide only the value of recorded MIC for CNC(=O)c1cn(C)nc1[N+](=O)[O-] [Compound 61]
A: 50

Q: Provide only the value of recorded MIC for NC(=O)c1cn(CCCCl)nc1[N+](=O)[O-] [Compound 63]
A: 50

Q: Provide only the value of recorded MIC for NC(=O)c1cn(CCN2C(=O)c3ccccc3C2=O)nc1[N+](=O)[O-] [Compound 10]
A: 6.25

Q: Provide only the value of recorded MIC for Cn1cc(C#N)c([N+](=O)[O-])n1 [Compound 30, 1-methyl-3-nitro-4-pyrazolecarbonitrile]
A: 100

Q: Provide only the value of recorded MIC for N#CCCn1cc(C#N)c([N+](=O)[O-])n1 [Compound 73, 4-cyano-3-nitro-1-pyrazolepropionitrile]
A: 50

Q: Provide only the value of recorded MIC for C=Cn1cc(C(N)=O)c([N+](=O)[O-])n1 [Compound 81, 3-nitro-1-vinyl-4-pyrazolecarboxamide]
A: 1.56

Q: Provide only the value of recorded MIC for COCCn1cc(C(N)=O)c([N+](=O)[O-])n1 [Compound 65]
A: 50

Q: Provide only the value of recorded MIC for NC(=O)c1cn(CCCO)nc1[N+](=O)[O-] [Compound 62]
A: 50

Q: Provide only the value of recorded MIC for CC=CCn1cc(C(N)=O)c([N+](=O)[O-])n1 [Compound 75]
A: 12.5
